Data provenance is ChEMBL document CHEMBL4431311.

Molecular target: Endothelin-1 receptor (Homo sapiens, UniProt P25101)
Sequence (P25101 whole entry): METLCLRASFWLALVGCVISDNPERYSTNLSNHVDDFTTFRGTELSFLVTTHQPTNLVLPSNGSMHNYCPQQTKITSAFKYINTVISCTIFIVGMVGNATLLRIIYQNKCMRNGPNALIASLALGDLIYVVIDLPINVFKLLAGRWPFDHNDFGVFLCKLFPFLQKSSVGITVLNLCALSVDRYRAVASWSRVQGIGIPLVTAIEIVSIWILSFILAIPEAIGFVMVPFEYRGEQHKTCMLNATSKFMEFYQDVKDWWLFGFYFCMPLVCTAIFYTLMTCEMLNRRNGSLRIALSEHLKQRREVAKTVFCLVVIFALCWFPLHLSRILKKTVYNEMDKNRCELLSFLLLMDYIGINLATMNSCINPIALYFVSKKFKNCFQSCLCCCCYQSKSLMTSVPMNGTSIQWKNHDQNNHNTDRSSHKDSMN
Experiment: Displacement of [125I]ET-1 from ET-A receptor in human SK-N-MC cells incubated for 4 hrs by gamma counting method
Assay type: cell-based
READOUT_TYPE: IC50 (nM)
Use nM as the unit, but write only the number.

Asked: Please give the measured IC50 for this molecule: CCCC[C@H](NC(=O)[C@@H](Cc1cn(C(=O)OC)c2ccccc12)NC(=O)[C@@H](CC(C)(C)C)NC(=O)N1[C@H](C)CCC[C@@H]1C)C(=O)O
Given back: 1300

----------
Target: Endothelin-1 receptor (Homo sapiens)
Sequence (P25101 whole entry): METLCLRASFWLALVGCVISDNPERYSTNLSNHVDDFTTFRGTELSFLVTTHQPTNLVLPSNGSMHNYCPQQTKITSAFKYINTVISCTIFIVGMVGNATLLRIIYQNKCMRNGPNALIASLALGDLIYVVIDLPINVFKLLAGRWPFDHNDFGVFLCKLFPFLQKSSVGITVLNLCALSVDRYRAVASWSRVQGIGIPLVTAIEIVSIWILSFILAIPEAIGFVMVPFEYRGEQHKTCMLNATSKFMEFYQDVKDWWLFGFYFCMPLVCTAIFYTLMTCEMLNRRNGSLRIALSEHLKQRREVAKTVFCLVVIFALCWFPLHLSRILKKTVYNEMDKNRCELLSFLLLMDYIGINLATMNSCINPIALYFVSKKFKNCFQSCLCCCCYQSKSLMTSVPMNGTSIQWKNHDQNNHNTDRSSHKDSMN
Experiment: Displacement of [125I]ET-1 from human ET-A receptor expressed in CHO cell membrane incubated for 2 hrs
Type: cell membranes
READOUT_TYPE: pIC50
Friendly reminder that pIC50 comes from taking -log10 of the concentration in mol/L.

Asked: Find the recorded pIC50 belonging to Cc1cc(C)cc(C(=O)N(C)[C@H](Cc2ccc(-c3ccccc3)cc2)C(=O)N[C@@H](Cc2c[nH]c3ccccc23)C(=O)O)c1 and report it.
Given back: 7.03

----------
Molecular target: Endothelin receptor type B (Homo sapiens, UniProt P24530)
Sequence (P24530 whole entry): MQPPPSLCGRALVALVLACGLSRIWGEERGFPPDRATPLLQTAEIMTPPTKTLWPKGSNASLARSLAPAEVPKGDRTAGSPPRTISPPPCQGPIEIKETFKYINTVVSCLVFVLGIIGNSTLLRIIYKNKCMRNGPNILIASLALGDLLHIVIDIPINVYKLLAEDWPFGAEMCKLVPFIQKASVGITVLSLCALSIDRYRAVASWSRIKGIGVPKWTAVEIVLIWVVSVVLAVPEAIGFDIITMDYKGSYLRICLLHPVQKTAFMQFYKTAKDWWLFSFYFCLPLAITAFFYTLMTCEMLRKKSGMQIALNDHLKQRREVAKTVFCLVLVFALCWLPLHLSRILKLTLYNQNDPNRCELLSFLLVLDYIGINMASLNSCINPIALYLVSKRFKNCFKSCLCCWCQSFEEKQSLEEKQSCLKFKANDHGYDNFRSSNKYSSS
Assay: Displacement of [125I]ET-1 from ET-B receptor in human Girardi heart cells incubated for 4 hrs by gamma counting method
READOUT_TYPE: pIC50
Please note pIC50 is a logarithmic value: minus log10 of concentration in mol/L. Answer with that number alone.

Asked: Look at this molecule and give its reported pIC50. CCCC[C@H](NC(=O)[C@@H](Cc1cn(C(=O)OC)c2ccccc12)NC(=O)[C@@H](CC(C)(C)C)NC(=O)N1[C@H](C)CCC[C@@H]1C)C(=O)O
Given back: 8.92
